Source: patent US11986532B2

- TARGET ENTITY: BCL6 (Homo sapiens, UniProt P41182)
- Construct: endogenous in cells; host or cells: T47D breast cancer epithelial cells
- TEST: Immunofluorescence protocol for high content imaging of BCL6 (degradation) in T47D cells, 3 days compound treatment
- Assay type: cell-based
- CONDITION SET: T47D cells, 3 days compound treatment, read-out: Mean DC50 (nM)* category
MEASUREMENT KIND: DC50

• CNC(=O)COc1cc2cc(Nc3nc(N4CCC(O[C@H]5CC[C@H](N(C)C6CN(c7ccc8c(c7)C(=O)N(C7CCC(=O)NC7=O)C8=O)C6)CC5)CC4)ncc3Cl)ccc2n(C(C)C)c1=O (stereo partly drawn) = < 10 nM
• CNC(=O)COc1cc2cc(Nc3nc(N4CCC(O[C@H]5C[C@H](N6CC[C@H](c7ccc8c(c7)CN(C7CCC(=O)NC7=O)C8=O)[C@H](F)C6)C5)CC4)ncc3Cl)ccc2n(C(C)C)c1=O (mixture of isomers) = < 10 nM

Okay, next one:
Q. Bench note: what DC50 did CNC(=O)COc1cc2cc(Nc3nc(N4CCC(O[C@H]5C[C@H](N6CCC(c7cc8c(cc7F)C(=O)N(C7CCC(=O)NC7=O)C8)CC6)C5)CC4)ncc3Cl)ccc2n(C(C)C)c1=O (stereo partly drawn) show?
A. < 10 nM
